Target: Human M3 receptor (Homo sapiens, UniProt P20309)
Construct: purchased Perkin Elmer
Sequence (P20309 whole entry): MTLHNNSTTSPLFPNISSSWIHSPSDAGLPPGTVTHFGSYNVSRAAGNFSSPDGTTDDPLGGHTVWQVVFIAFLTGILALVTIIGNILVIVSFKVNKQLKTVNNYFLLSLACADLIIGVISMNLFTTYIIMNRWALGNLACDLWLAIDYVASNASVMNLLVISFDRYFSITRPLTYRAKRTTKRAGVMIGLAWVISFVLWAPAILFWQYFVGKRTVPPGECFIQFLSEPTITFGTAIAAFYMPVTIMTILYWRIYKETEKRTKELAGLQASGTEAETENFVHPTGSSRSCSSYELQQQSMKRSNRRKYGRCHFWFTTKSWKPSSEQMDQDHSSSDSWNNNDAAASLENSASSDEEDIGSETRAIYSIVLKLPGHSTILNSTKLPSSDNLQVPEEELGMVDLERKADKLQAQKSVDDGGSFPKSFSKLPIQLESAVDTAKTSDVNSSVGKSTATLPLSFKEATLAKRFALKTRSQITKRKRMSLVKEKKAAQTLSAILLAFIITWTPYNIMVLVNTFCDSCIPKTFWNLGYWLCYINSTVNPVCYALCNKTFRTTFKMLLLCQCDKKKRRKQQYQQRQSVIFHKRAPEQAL
Experiment: M3 receptor radioligand binding assay
Conditions: human M3 receptor membranes, [N-methyl-3H] scopolamine methyl chloride; Ki from IC50 by Cheng and Prusoff; read-out: M3 binding affinity (Ki class)
Protocol: Example. M3 Receptor Radioligand Binding Assay The assay was carried out in 96-well polypropylene plates in a volume of 250 ul. […] The final assay concentration of DMSO was 0.5% (v/v). […] The plates were dried before addition of 50 μl of microscint-0, sealed then read in a Trilux Microbeta scintillation counter. IC50 values are determined from competition curves using a non-linear curve fitting program. Ki values were calculated from IC50 values by the Cheng and Prusoff equation.
QUANTITY: Ki

Sample records with Ki:
O=C(NC1(C(=O)OCC2CCN(Cc3ccco3)CC2)CCc2ccccc21)c1cccc(OCCCCCCNC[C@H](O)c2ccc(O)c3[nH]c(=O)ccc23)c1 (some centres unmarked)	1 to 10 nM
Cc1cccc2c1CCC2(NC(=O)c1cccc(OCCCCCNC[C@H](O)c2ccc(O)c3[nH]c(=O)ccc23)c1)C(=O)O[C@H]1CN2CCC1CC2 (single isomer, unassigned; diastereoisomer 1) [Compound 5A]	1 to 10 nM
Cc1cccc2c1CCC2(NC(=O)c1cccc(OCCCCCNC[C@H](O)c2ccc(O)c3[nH]c(=O)ccc23)c1)C(=O)O[C@H]1CN2CCC1CC2 (single isomer, unassigned; diastereoisomer 2) [Compound 5B]	< 1 nM
O=C(NC1(C(=O)O[C@H]2CN3CCC2CC3)CCc2ccccc21)c1cccc(OCCCCNC[C@H](O)c2ccc(O)c3[nH]c(=O)ccc23)c1 (some centres unmarked)	< 1 nM
O=C(NCCCCNC[C@H](O)c1ccc(O)c2[nH]c(=O)ccc12)c1ccc(CNC2(C(=O)OC3CCN(Cc4ccccc4)CC3)CCc3ccccc32)s1 (single isomer, unassigned; stereoisomer 1) [Compound 24]	< 1 nM

Required: Ki, one value per compound below.
1. Cc1cccc2c1CCC2(NCc1cccc(C(=O)NCCCCNC[C@H](O)c2ccc(O)c3[nH]c(=O)ccc23)c1)C(=O)O[C@H]1CN2CCC1CC2 (some centres unmarked)
2. O=C(NCCCCNC[C@H](O)c1ccc(O)c2[nH]c(=O)ccc12)c1ccc(CNC2(C(=O)OCC3CCN(Cc4cccc(O)c4)CC3)CCc3ccccc32)s1 (some centres unmarked)
3. O=C(O[C@H]1CN2CCC1CC2)C1(NCc2cccc(OCCCCCNC[C@H](O)c3ccc(O)c4[nH]c(=O)ccc34)c2)CCc2ccccc21 (some centres unmarked)
4. CC(C)N1CCC(COC(=O)C2(NC(=O)c3cccc(OCCCCCCNC[C@H](O)c4ccc(O)c5[nH]c(=O)ccc45)c3)CCc3ccccc32)CC1 (some centres unmarked)
5. O=C(NC1(C(=O)O[C@H]2CN3CCC2CC3)CCc2ccccc21)c1ccc(OCc2ccc(CNC[C@H](O)c3ccc(O)c4[nH]c(=O)ccc34)cc2)cc1 (some centres unmarked)
6. O=C(NCCCCNC[C@H](O)c1ccc(O)c2[nH]c(=O)ccc12)c1ccc(CNC2(C(=O)O[C@@H]3CCN(Cc4ccccc4)C3)CCc3ccccc32)s1 (single isomer, unassigned; stereoisomer 1) [Compound 26]

a:
1. < 1 nM
2. < 1 nM
3. < 1 nM
4. < 1 nM
5. 1 to 10 nM
6. > 10 nM

Required: Ki, one value per compound below.
1. O=C(NCCCCNC[C@H](O)c1ccc(O)c2[nH]c(=O)ccc12)c1ccc(CNC2(C(=O)OCC3CCN(Cc4ccccc4)CC3)CCc3ccccc32)s1 (single isomer, unassigned; stereoisomer 2) [Compound 23]
2. O=C(NCCCCNC[C@H](O)c1ccc(O)c2[nH]c(=O)ccc12)c1ccc(CNC2(C(=O)OC3CCN(Cc4ccccc4)CC3)CCc3ccccc32)s1 (single isomer, unassigned; stereoisomer 2) [Compound 27]
3. O=C(NCCCCNC[C@H](O)c1ccc(O)c2[nH]c(=O)ccc12)c1ccc(CNC2(C(=O)OCC3CCN(Cc4ccccc4)CC3)CCc3ccccc32)s1 (single isomer, unassigned; stereoisomer 1) [Compound 22]
4. O=C(NC1(C(=O)OCC2CCN(Cc3cccc(O)c3)CC2)CCc2ccccc21)c1cccc(OCCCCCCNC[C@H](O)c2ccc(O)c3[nH]c(=O)ccc23)c1 (some centres unmarked)

a:
1. < 1 nM
2. < 1 nM
3. < 1 nM
4. 1 to 10 nM

Required: Ki, one value per compound below.
1. O=C(NCCCCNC[C@H](O)c1ccc(O)c2[nH]c(=O)ccc12)c1ccc(CNC2(C(=O)OCC3CCN(Cc4cccs4)CC3)CCc3ccccc32)s1 (some centres unmarked)
2. O=C(NCCCCNC[C@H](O)c1ccc(O)c2[nH]c(=O)ccc12)c1ccc(CNC2(C(=O)O[C@@H]3CCCN(Cc4ccccc4)C3)CCc3ccccc32)s1 (single isomer, unassigned; stereoisomer 1)
3. O=C(NCCCCNC[C@H](O)c1ccc(O)c2[nH]c(=O)ccc12)c1ccc(CNC2(C(=O)O[C@@H]3CCN(Cc4ccccc4)C3)CCc3ccccc32)s1 (single isomer, unassigned; stereoisomer 2) [Compound 28]
4. O=C(NCCCCNC[C@H](O)c1ccc(O)c2[nH]c(=O)ccc12)c1cccc(CNC2(C(=O)O[C@H]3CN4CCC3CC4)CCc3ccccc32)c1 (some centres unmarked)
5. O=C(NCCCCNC[C@H](O)c1ccc(O)c2[nH]c(=O)ccc12)c1ccc(CNC2(C(=O)O[C@H]3CN4CCC3CC4)Cc3ccccc3C2)s1

a:
["< 1 nM", "< 1 nM", "< 1 nM", "< 1 nM", "< 1 nM"]

---

target: Human β2 adrenoceptor (Homo sapiens); construct: purchased Perkin Elmer; experiment: β2 adrenoceptor radioligand binding assay; details: B2 binding affinity (Ki class), human β2 adrenoceptor membranes, 125-I cyanopindolol; Ki from IC50 by Cheng and Prusoff
Sequence (P07550 whole entry): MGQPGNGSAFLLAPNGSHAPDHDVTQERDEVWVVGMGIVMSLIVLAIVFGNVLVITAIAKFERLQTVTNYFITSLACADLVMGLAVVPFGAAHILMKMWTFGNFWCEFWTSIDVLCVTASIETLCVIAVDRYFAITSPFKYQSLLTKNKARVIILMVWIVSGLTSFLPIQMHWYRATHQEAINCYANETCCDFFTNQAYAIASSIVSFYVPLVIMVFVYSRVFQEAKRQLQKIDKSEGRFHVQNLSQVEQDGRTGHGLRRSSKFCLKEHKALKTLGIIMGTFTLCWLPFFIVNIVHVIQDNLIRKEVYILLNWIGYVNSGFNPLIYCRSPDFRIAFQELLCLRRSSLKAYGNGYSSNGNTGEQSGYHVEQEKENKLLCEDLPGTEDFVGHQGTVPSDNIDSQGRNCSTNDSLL
QUANTITY: Ki

q: // map O=C(NC1(C(=O)O[C@H]2CN3CCC2CC3)CCc2ccccc21)c1cccc(OCCCCCNC[C@H](O)c2ccc(O)c3[nH]c(=O)ccc23)c1 (stereo partly shown) to recorded Ki (system: Human β2 adrenoceptor (Homo sapiens))
a: < 1 nM

---

Answer each item with its documented Ki.
target: Human M3 receptor (Homo sapiens, UniProt P20309); construct: purchased Perkin Elmer; assay: M3 receptor radioligand binding assay; settings: human M3 receptor membranes, [N-methyl-3H] scopolamine methyl chloride; Ki from IC50 by Cheng and Prusoff; read-out: M3 binding affinity (Ki class)

Sample records with Ki:
O=C(NCCCCNC[C@H](O)c1ccc(O)c2[nH]c(=O)ccc12)c1ccc(CNC2(C(=O)OCC3CCN(Cc4ccccc4)CC3)CCc3ccccc32)s1 (stereo partly drawn) [Compound 16]	< 1 nM
O=C(NC1(C(=O)O[C@H]2CN3CCC2CC3)CCc2ccccc21)c1cccc(COCCCCNC[C@H](O)c2ccc(O)c3[nH]c(=O)ccc23)c1 (stereo partly drawn)	1 to 10 nM

// switching to the query compound
q: Could you share which Ki value was measured for O=C(O[C@H]1CN2CCC1CC2)C1(NCc2cccc(OCc3cccc(OCCCCNC[C@H](O)c4ccc(O)c5[nH]c(=O)ccc45)c3)c2)CCc2ccccc21 (stereo partly drawn) ?
a: < 1 nM

---

Biological target: Human M3 receptor (Homo sapiens, UniProt P20309)
Construct: purchased Perkin Elmer
Experiment: M3 receptor radioligand binding assay
Details: M3 binding affinity (Ki class), human M3 receptor membranes, [N-methyl-3H] scopolamine methyl chloride; Ki from IC50 by Cheng and Prusoff
Protocol: Example. M3 Receptor Radioligand Binding Assay The assay was carried out in 96-well polypropylene plates in a volume of 250 ul. […] The final assay concentration of DMSO was 0.5% (v/v). […] The plates were dried before addition of 50 μl of microscint-0, sealed then read in a Trilux Microbeta scintillation counter. IC50 values are determined from competition curves using a non-linear curve fitting program. Ki values were calculated from IC50 values by the Cheng and Prusoff equation.
QUANTITY: Ki

q: Could you share which Ki value was measured for O=C(NC1(C(=O)O[C@H]2CN3CCC2CC3)CCc2ccccc21)c1cccc(OCCCCCNC[C@H](O)c2ccc(O)c3[nH]c(=O)ccc23)c1 (stereo partly shown) ?
a: < 1 nM

---

biological target: Human β2 adrenoceptor (Homo sapiens); construct: purchased Perkin Elmer; assay: β2 adrenoceptor radioligand binding assay; details: human β2 adrenoceptor membranes, 125-I cyanopindolol; Ki from IC50 by Cheng and Prusoff; read-out: B2 binding affinity (Ki class)
QUANTITY: Ki

Sample records with Ki:
Cc1cccc2c1CCC2(NC(=O)c1cccc(OCCCCCNC[C@H](O)c2ccc(O)c3[nH]c(=O)ccc23)c1)C(=O)O[C@H]1CN2CCC1CC2 (single isomer, unassigned; diastereoisomer 1) [Compound 5A]	1 to 10 nM
O=C(Cc1ccc(CC(=O)NC2(C(=O)O[C@H]3CN4CCC3CC4)CCc3ccccc32)cc1)Nc1ccc(CNC[C@H](O)c2ccc(O)c3[nH]c(=O)ccc23)cc1 (stereo partly drawn)	> 10 nM

// switching to the query compound
q: Could you share which Ki value was measured for O=C(NCCCCNC[C@H](O)c1ccc(O)c2[nH]c(=O)ccc12)c1ccc(CNC2(C(=O)OCC3CCN(Cc4cccc(O)c4)CC3)CCc3ccccc32)s1 (stereo partly drawn) ?
a: 1 to 10 nM
